Here, each record is paired with measured MIC data.
test system: Pseudomonas aeruginosa; experiment: Antimicrobial activity against Pseudomonas aeruginosa isolate 14169c from fibrosis patient by Etest; type: functional
testReadout: MIC

# molecule, testReadout, result
rows = [
    ("O=C(O)c1cn(C2CC2)c2cc(N3CCNCC3)c(F)cc2c1=O [CIPROFLOXACIN]", "MIC", "1 µg/mL"),
    ("C[C@@H](O)[C@H]1C(=O)N2C(C(=O)O)=C(S[C@@H]3CN[C@H](C(=O)N(C)C)C3)[C@H](C)[C@H]12 [MEROPENEM]", "MIC", "4 µg/mL"),
    ("CC1(C)S[C@@H]2[C@H](NC(=O)C(C(=O)O)c3ccccc3)C(=O)N2[C@H]1C(=O)O (stereo partly drawn) [CARBENICILLIN]", "MIC", "512 µg/mL"),
    ("CO/N=C(\\C(=O)N[C@@H]1C(=O)N2C(C(=O)O)=C(COC(C)=O)CS[C@H]12)c1csc(N)n1 [CEFOTAXIME]", "MIC", "128 µg/mL"),
    ("NCC[C@H](O)C(=O)N[C@@H]1C[C@H](N)[C@@H](O[C@H]2O[C@H](CN)[C@@H](O)[C@H](O)[C@H]2O)[C@H](O)[C@H]1O[C@H]1O[C@H](CO)[C@@H](O)[C@H](N)[C@H]1O [AMIKACIN]", "MIC", "32 µg/mL"),
    ("CC(C)(O/N=C(\\C(=O)N[C@@H]1C(=O)N2C(C(=O)[O-])=C(C[n+]3ccccc3)CS[C@H]12)c1csc(N)n1)C(=O)O [CEFTAZIDIME]", "MIC", "8 µg/mL"),
    ("C[C@@H](O)[C@H]1C(=O)N2C(C(=O)O)=C(SCCNC=N)C[C@H]12 [IMIPENEM ANHYDROUS]", "MIC", "16 µg/mL"),
    ("NC[C@H]1O[C@H](O[C@H]2[C@H](O)[C@@H](O[C@H]3O[C@H](CO)[C@@H](O)[C@H](N)[C@H]3O)[C@H](N)C[C@@H]2N)[C@H](N)C[C@@H]1O [TOBRAMYCIN]", "MIC", "4 µg/mL"),
]
